tgt: JAK3 (Homo sapiens, UniProt P52333)
Construct: endogenous in cells; host or cells: MHH-CALL-4
Sequence (P52333 whole entry): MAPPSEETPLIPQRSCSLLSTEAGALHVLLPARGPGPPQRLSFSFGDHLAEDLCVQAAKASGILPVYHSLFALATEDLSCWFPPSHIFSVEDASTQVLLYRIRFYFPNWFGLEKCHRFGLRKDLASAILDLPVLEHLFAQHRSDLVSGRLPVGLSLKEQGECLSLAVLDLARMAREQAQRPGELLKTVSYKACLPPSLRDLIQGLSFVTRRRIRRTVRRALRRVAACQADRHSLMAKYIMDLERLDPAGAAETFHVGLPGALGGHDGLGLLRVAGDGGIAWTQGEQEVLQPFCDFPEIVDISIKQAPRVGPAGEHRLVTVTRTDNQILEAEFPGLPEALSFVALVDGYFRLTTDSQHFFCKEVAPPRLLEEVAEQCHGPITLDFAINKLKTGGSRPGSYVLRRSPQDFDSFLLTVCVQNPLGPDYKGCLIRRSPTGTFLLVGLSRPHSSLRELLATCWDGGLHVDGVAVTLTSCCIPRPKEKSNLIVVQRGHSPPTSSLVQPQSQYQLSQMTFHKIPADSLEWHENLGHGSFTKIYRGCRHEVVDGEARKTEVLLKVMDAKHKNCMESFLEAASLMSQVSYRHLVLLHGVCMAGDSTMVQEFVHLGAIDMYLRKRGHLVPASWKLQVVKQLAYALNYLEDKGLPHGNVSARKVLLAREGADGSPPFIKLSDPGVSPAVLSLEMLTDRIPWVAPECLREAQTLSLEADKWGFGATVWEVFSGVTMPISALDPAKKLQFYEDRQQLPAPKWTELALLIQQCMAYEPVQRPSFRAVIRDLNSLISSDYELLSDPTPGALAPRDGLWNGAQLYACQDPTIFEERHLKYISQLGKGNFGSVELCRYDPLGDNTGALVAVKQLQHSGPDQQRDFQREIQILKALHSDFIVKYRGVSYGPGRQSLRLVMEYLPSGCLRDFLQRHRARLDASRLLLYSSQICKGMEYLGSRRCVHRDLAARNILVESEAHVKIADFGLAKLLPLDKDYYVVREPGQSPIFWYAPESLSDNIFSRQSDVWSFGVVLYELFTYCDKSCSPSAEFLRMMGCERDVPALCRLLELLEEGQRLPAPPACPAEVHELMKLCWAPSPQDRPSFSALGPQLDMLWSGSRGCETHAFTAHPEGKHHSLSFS
experimental.details: Western blot assay, JAK3 protein degradation
Type: cell-based
conditions.used: MHHCALL4; 100 nM, 24 h; MHH-CALL-4 cells; vehicle control = 100%; read-out: Target Protein Degradation (% remaining at 100 nM, 24 h) JAK3
Criterion: remaining activity at 0.1 µM strictly under 60%. Met: t. Not met: f.

- compound: "N#CC[C@@H](C1CCCC1)n1cc(-c2nc(Nc3ccc(C(=O)NCCCN4CCN(c5ccc6c(c5)C(=O)N(C5CCC(=O)NC5=O)C6=O)CC4)cc3)nc3[nH]ccc23)cn1 (stereo partly drawn) [Compound 23]"
  class.assignment: "f"
- compound: "CCS(=O)(=O)N1CC(CC#N)(n2cc(-c3nc(Nc4ccc(C(=O)NCCOCCOc5ccc(C6CCC(=O)NC6=O)cc5)cc4)nc4[nH]ccc34)cn2)C1 (stereo not drawn) [Compound 11]"
  class.assignment: "f"
- compound: "CCCn1cc(-c2nc(Nc3ccc(C(=O)NCCCN4CCN(c5ccc(C6CCC(=O)NC6=O)cc5)CC4)cc3)nc3[nH]ccc23)cn1 (stereo not drawn) [Compound 44]"
  class.assignment: "f"
- compound: "CCS(=O)(=O)N1CC(CC#N)(n2cc(-c3nc(Nc4ccc(C(=O)NCCCN5CCC(c6ccc7c(c6)CN(C6CCC(=O)NC6=O)C7=O)CC5)cc4)nc4[nH]ccc34)cn2)C1 (stereo not drawn) [Compound 28]"
  class.assignment: "f"
- compound: "CCS(=O)(=O)C1CC(CC#N)(n2cc(-c3nc(Nc4ccc(C(=O)NC5CCN(c6ccc7c(c6)C(=O)N(C6CCC(=O)NC6=O)C7=O)CC5)cc4)nc4[nH]ccc34)cn2)C1 (stereo not drawn) [Compound 29]"
  class.assignment: "f"
- compound: "CCS(=O)(=O)N1CC(CC#N)(n2cc(-c3nc(Nc4ccc(C(=O)NCCCCN5CCN(c6ccc7c(c6)C(=O)N(C6CCC(=O)NC6=O)C7=O)CC5)cc4)nc4[nH]ccc34)cn2)C1 (stereo not drawn) [Compound 20]"
  class.assignment: "f"
- compound: "CCS(=O)(=O)N1CC(CC#N)(n2cc(-c3nc(Nc4ccc(C(=O)NCCCCOc5ccc(C6CCC(=O)NC6=O)cc5)cc4)nc4[nH]ccc34)cn2)C1 (stereo not drawn) [Compound 5]"
  class.assignment: "f"
- compound: "CCS(=O)(=O)N1CC(CC#N)(n2cc(-c3nc(Nc4ccc(C(=O)NCCCCNc5cccc(C6CCC(=O)NC6=O)c5)cc4)nc4[nH]ccc34)cn2)C1 (stereo not drawn) [Compound 4]"
  class.assignment: "t"
- compound: "CCS(=O)(=O)N1CC(CC#N)(n2cc(-c3nc(Nc4ccc(C(=O)NCCCCCNc5cccc(C6CCC(=O)NC6=O)c5)cc4)nc4[nH]ccc34)cn2)C1 (stereo not drawn) [Compound 6]"
  class.assignment: "t"
- compound: "CCS(=O)(=O)N1CC(CC#N)(n2cc(-c3nc(Nc4ccc(C(=O)N5CCC(CN6CCN(c7ccc(C8CCC(=O)NC8=O)cc7)CC6)CC5)cc4)nc4[nH]ccc34)cn2)C1 (stereo not drawn) [Compound 49]"
  class.assignment: "t"
- compound: "CCS(=O)(=O)N1CC(CC#N)(n2cc(-c3nc(Nc4ccc(C(=O)NCCN5CCC(c6ccc7c(c6)CN(C6CCC(=O)NC6=O)C7=O)CC5)cc4)nc4[nH]ccc34)cn2)C1 (stereo not drawn) [Compound 35]"
  class.assignment: "t"
- compound: "CCS(=O)(=O)N1CC(CC#N)(n2cc(-c3nc(Nc4ccc(C(=O)NCC5CCN(c6ccc(C7CCC(=O)NC7=O)cc6)CC5)cc4)nc4[nH]ccc34)cn2)C1 (stereo not drawn) [Compound 45]"
  class.assignment: "t"
- compound: "CCS(=O)(=O)N1CC(CC#N)(n2cc(-c3nc(Nc4ccc(C(=O)NCCC5CCN(c6ccc7c(c6)C(=O)N(C6CCC(=O)NC6=O)C7=O)CC5)cc4)nc4[nH]ccc34)cn2)C1 (stereo not drawn) [Compound 32]"
  class.assignment: "t"
- compound: "CCS(=O)(=O)N1CC(CC#N)(n2cc(-c3nc(Nc4ccc(C(=O)NCCCCCCNc5ccc(C6CCC(=O)NC6=O)cc5)cc4)nc4[nH]ccc34)cn2)C1 (stereo not drawn) [Compound 1]"
  class.assignment: "t"
- compound: "CCS(=O)(=O)N1CC(CC#N)(n2cc(-c3nc(Nc4ccc(C(=O)NCCCN5CCN(c6cccc(C7CCC(=O)NC7=O)c6)CC5)cc4)nc4[nH]ccc34)cn2)C1 (stereo not drawn) [Compound 42]"
  class.assignment: "f"
- compound: "CCS(=O)(=O)N1CC(CC#N)(n2cc(-c3nc(Nc4ccc(C(=O)NCCCCCNc5ccc(C6CCC(=O)NC6=O)cc5)cc4)nc4[nH]ccc34)cn2)C1 (stereo not drawn) [Compound 7]"
  class.assignment: "t"
- compound: "CCS(=O)(=O)N1CC(CC#N)(n2cc(-c3nc(Nc4ccc(C(=O)NCCCN5CCN(c6ccc(C7CCC(=O)NC7=O)cc6)CC5)cc4)nc4[nH]ccc34)cn2)C1 (stereo not drawn) [Compound 10]"
  class.assignment: "t"
- compound: "CCS(=O)(=O)N1CC(CC#N)(n2cc(-c3nc(Nc4ccc(C(=O)NCCNC(=O)COc5ccc(C6CCC(=O)NC6=O)cc5)cc4)nc4[nH]ccc34)cn2)C1 (stereo not drawn) [Compound 17]"
  class.assignment: "f"
- compound: "CCS(=O)(=O)C1CC(CC#N)(n2cc(-c3nc(Nc4ccc(C(=O)NC5CCN(c6cccc7c6C(=O)N(C6CCC(=O)NC6=O)C7=O)CC5)cc4)nc4[nH]ccc34)cn2)C1 (stereo not drawn) [Compound 30]"
  class.assignment: "f"
- compound: "CCS(=O)(=O)N1CC(CC#N)(n2cc(-c3nc(Nc4ccc(C(=O)NCCN5CCN(c6cccc(C7CCC(=O)NC7=O)c6)CC5)cc4)nc4[nH]ccc34)cn2)C1 (stereo not drawn) [Compound 40]"
  class.assignment: "t"
